test-system: Replicative DNA helicase DnaB (Mycobacterium tuberculosis)
Sequence (P9WMR3 1-399, added parts left off): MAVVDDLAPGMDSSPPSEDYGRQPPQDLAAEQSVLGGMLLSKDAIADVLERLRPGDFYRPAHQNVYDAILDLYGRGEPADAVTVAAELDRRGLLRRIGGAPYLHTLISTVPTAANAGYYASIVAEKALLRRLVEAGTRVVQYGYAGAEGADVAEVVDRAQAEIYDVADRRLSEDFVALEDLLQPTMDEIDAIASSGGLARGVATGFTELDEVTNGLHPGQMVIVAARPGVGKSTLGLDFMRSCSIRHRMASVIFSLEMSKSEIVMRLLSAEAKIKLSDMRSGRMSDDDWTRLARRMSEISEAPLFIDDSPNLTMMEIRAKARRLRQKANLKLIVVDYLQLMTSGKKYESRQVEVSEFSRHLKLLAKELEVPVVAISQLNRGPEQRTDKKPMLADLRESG
procedure-details: DnaB intein splicing inhibitors, dose response, biochemical, cell-free fluorescence (AID 449749)
Assay type: functional
The source made the active and inactive calls. No stated cut-off is given here; in the data, actives have a measured AC50 and inactives only a lower limit.
Your reply should match one of these outcome classes. active, inactive

### Prompt How did this test come out for CCN(CC)C(=O)c1ccc2c(c1)C1C(Cl)C(Sc3ccccc3[N+](=O)[O-])CC1C(C(=O)O)N2 (stereo not given) ?
### Response active

### Prompt # outcome recorded in this test, key = `N#C/C(=C\c1cccc(O)c1)c1nc2ccccc2o1`
### Response active

### Prompt Dear colleague, could you share the recorded outcome for `Cc1cnnn1-c1ccc(C(=O)CCl)cc1` when you have a moment?
### Response active

### Prompt Hi, sorry to bother you, what did the test record for CN(CCc1cnn(C)c1)C(=O)C1CCC(=O)N(CC2CCCCC2)C1 (stereo not given) ?
### Response inactive

### Prompt Assay outcome for Cc1cc2c3c(c1)C(C)CC(C)(C)N3C(=O)C2=C(C#N)C#N (stereo not given) : what was it?
### Response active

### Prompt Assay outcome for CCOc1ccc(C2C(C#N)=C(N)Oc3[nH]nc(C)c32)cc1OC(=O)C1CC1 (stereo not given) : what was it?
### Response active

### Prompt How was `O=C(CCl)N(c1ccccc1)c1ccccc1` classified in this test?
### Response active

### Prompt Field: outcome | Entry: CN(C1=C(NC(=O)c2ccccc2)C(=O)c2ccccc2C1=O)C1CCS(=O)(=O)C1 (stereo not given)
### Response active

### Prompt For this molecule, state the assay outcome: `O=C1C([O-])=C([n+]2ccccc2)C(=O)c2ccccc21`
### Response active

### Prompt Hi, sorry to bother you, what did the test record for `COc1cc(/C=C/c2cc[n+](C)cc2)ccc1OCC(=O)Nc1ccc(Cl)c(Cl)c1` ?
### Response inactive

### Prompt Write down the call the test reported for this molecule. Item: `CC(C)Cc1ccc(-c2cc(O)[nH]n2)cc1`
### Response active

### Prompt So what was the verdict on O=C(NCCc1ccccc1)C(c1cccs1)N(C(=O)CCl)c1ccc(Cl)cc1 (stereo not given) in this test?
### Response active

### Prompt Please indicate how the test categorized `Cc1cc(=O)n(-c2ccc(C(=O)O)cc2)[nH]1` .
### Response active

### Prompt Call for entry `CS/C(=C\[N+](=O)[O-])Nc1ccc(OC(F)(F)F)cc1` :
### Response active

### Prompt Recorded test outcome, item `O=S(=O)(Nc1ccc(O)c2ccccc12)c1ccc(F)cc1`
### Response active

### Prompt Recorded test outcome, item `COc1ccc(Nc2cnn(-c3nc4ccccc4s3)c(=O)c2Cl)cc1`
### Response inactive

### Prompt Hi, sorry to bother you, what did the test record for `COC(=O)c1c(NC(=O)/C=C/C(=O)O)sc(C)c1-c1ccc(C)c(C)c1` ?
### Response active

### Prompt Look up the recorded call for O=C1C(Cl)=C(NCC2CCCO2)C(=O)N1c1ccccc1 (stereo not given) in this test.
### Response active

### Prompt Kindly provide the recorded test outcome for the following molecule: `Cc1cc(O)c(C(C)C)cc1/N=C\c1ccccc1O`
### Response active

### Prompt Assay result, entry `CC[n+]1c(/C=C2\C=C(C)CC(C)(C)C2)sc2ccccc21` — outcome?
### Response inactive

### Prompt Recorded call for CCCNC(=O)c1nnsc1[S+]([O-])c1ccc(Cl)cc1 (stereo not given) ?
### Response active

### Prompt Hi, sorry to bother you, what did the test record for COc1cc(NC(C)CCCN)c2ncccc2c1Oc1ccccc1 (stereo not given) ?
### Response inactive

### Prompt Recorded test outcome, item `CCS(=O)(=O)c1ncc(Cl)c(C(=O)Nc2ccc(C)cc2)n1`
### Response active
